Values from paper PMC4400149

- target: T1, ChErb1 432-801 (C-terminal seven-bladed beta-propeller) (Chaetomium thermophilum var. …, UniProt G0SCK6 432-801)
- T1 sequence: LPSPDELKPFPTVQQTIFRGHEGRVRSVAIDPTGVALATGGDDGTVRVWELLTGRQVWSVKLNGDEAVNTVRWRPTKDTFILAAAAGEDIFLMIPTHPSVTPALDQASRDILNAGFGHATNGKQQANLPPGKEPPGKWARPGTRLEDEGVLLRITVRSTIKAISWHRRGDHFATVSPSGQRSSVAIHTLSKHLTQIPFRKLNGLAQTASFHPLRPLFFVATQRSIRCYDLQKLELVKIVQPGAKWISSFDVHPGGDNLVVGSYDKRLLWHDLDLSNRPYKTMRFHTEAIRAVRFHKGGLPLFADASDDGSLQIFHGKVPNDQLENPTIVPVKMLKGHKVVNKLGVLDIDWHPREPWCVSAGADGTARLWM
- test-summary: BLI; Fluorescence: 20 mM Hepes pH 7.5, 150 mM NaCl, 5% glycerol, 2 mM beta-mercaptoethanol, 25 C; bead pull-down: 50 mM Tris pH 8, 100 mM NaCl, 5 mM MgCl2, 3 mM DTT, 0.1% Triton X-100, 0.1 mg/ml BSA, room temperature; BLI conditions not in material
- condition: protein: recombinant; tags: N-terminal 6xHis with 3C site (pET28-NKI/LIC 6His/3C); single strand
observed-property: Kd (nM)
The reply should contain only the number, in nM.

Query: Look up and state reported Kd for UUUUUUUUUUUUUUU (ssRNA) [biotinylated poly(U) 15-mer]
Response: 170
